Provenance of the data: paper PMC6669608

Assay: Cytotoxicity assay (alamarBlue)
Type: cell-based, murine
Conditions: mouse; 24 h, 37 °C; read-out: CC50, toxicity against murine macrophage J774.A1
Here the recorded CC50 is given for each entry.

molecule	CC50
CC(C)(O)[C@H]1CC[C@](C)([C@@H]2CC[C@](CO)([C@H]3CC[C@H]4O[C@@H]([C@]5(C)CC[C@@H](Br)C(C)(C)O5)CC[C@]4(C)O3)O2)O1 [Compound 9, 28-hydroxysaiyacenol B]	> 100 µM
CC(C)(O)[C@H]1CC[C@](C)([C@@H]2CC[C@@](CO)([C@H]3CC[C@H]4O[C@@H]([C@]5(C)CC[C@@H](Br)C(C)(C)O5)CC[C@]4(C)O3)O2)O1 [Compound 8, 28-hydroxysaiyacenol A]	> 100 µM
CC(C)(O)[C@H]1CC[C@](C)([C@@H]2CC[C@](CI)([C@H]3CC[C@H]4O[C@@H]([C@]5(C)CC[C@@H](Br)C(C)(C)O5)CC[C@]4(C)O3)O2)O1 [Compound 15, 28-iodosaiyacenol B]	> 100 µM

###

Test: Cytotoxicity assay (alamarBlue)
Type: cell-based, murine
Settings: mouse, J774A.1 murine macrophages; 24 h, 37 °C; read-out: CC50, toxicity against murine macrophage J774.A1
Listed here: items and their measured CC50 at 24 h.
assay endpoint: CC50 at 24 h

compound	result value
[H]/N=C(\N/C(=N/[H])NCCCCCCNC(=N)NC(=N)Nc1ccc(Cl)cc1)Nc1ccc(Cl)cc1 [Chlorhexidine, chlorhexidine, reference compound]	6.64 µM
CC1(C)O[C@](C)([C@H]2CC[C@]3(C)OC(=O)CC[C@H]3O2)CC[C@H]1Br	> 100 µM
C[C@@H](c1ncncc1F)[C@](O)(Cn1cncn1)c1ccc(F)cc1F [Voriconazole, voriconazole, reference compound]	2.64 µM
CC(C)(O)C1CCC(C)(C2CCC(C)(C3CCC(C(C)(O)CCC4OC(C)(C)C5CCC4(C)O5)O3)O2)O1 (stereo not drawn)	> 100 µM
C[C@@H]1[C@H](O)[C@@H](C)/C=C/C=C/C=C/C=C/C=C/C=C/C=C/[C@H](O[C@@H]2O[C@H](C)[C@@H](O)[C@H](N)[C@@H]2O)C[C@@H]2O[C@](O)(C[C@@H](O)C[C@@H](O)[C@H](O)CC[C@@H](O)C[C@@H](O)CC(=O)O[C@H]1C)C[C@H](O)[C@H]2C(=O)O [Amphotericin B, amphotericin B, reference compound]	> 100 µM
C=C(C)[C@@H]1CC[C@@](C)([C@H]2CC[C@]3(C)O[C@@H](C(=C)CC[C@H](O)[C@@]4(C)CC[C@H](C(C)(C)O)O4)CC[C@H]3O2)O1 [Compound 5, 1,2-dehydropseudodehydrothyrsiferol]	> 100 µM

###

Experiment: Cytotoxicity assay (alamarBlue)
Type: cell-based, murine
Details: mouse; 24 h, 37 °C; read-out: CC50, toxicity against murine macrophage J774.A1
assay endpoint: CC50 at 24 h

1. CC(C)(O)[C@H]1CC[C@](C)([C@@H](O)CC[C@](C)(O)[C@H]2CC[C@H]3O[C@@H]([C@]4(C)CC[C@@H](Br)C(C)(C)O4)CC[C@]3(C)O2)O1 > 100 µM
